Items are presented alongside their recorded pIC50.
# system: dopamine D1 receptor (Macaca mulatta (Rhesus macaque), UniProt O77680)
# Sequence (O77680 whole entry): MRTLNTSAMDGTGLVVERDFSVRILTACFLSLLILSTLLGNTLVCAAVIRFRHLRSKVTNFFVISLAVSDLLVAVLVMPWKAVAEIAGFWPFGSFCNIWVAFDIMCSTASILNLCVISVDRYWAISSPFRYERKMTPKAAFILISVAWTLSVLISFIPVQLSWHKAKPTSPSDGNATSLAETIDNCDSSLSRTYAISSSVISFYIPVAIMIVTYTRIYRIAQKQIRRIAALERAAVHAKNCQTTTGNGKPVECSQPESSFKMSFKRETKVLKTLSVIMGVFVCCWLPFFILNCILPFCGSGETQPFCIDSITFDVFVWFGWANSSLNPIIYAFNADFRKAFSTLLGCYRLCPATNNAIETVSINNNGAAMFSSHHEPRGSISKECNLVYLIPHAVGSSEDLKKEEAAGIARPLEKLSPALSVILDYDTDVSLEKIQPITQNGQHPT
# procedure-summary: Affinity on dopamine D1 receptor, competition with [3H] SCH23390
Here pIC50 is given on a logarithmic scale as minus log10 of the concentration in mol/L.

For orientation, consider the following solved cases.
[[record]]
molecule = "COc1cc2c(cc1O)[C@@H]1Cc3cc(C)cc(C)c3CN1CC2 [DC037031]"
number = 7.25

[[record]]
molecule = "COc1cc2c(cc1OC)CN1CCc3cc(O)c(O)cc3C1C2 (racemic) [DC037024]"
number = 5.82


Shift focus to the following entry.
### Prompt Name the reported pIC50 value associated with the molecule COc1cc2c(c(OC)c1OC)CN1CCc3cc4c(cc3[C@@H]1C2)OCO4 [DC037016]
### Response 6.12

====

Items are presented alongside their recorded IC50.
# system: dopamine D1 receptor (Macaca mulatta (Rhesus macaque), UniProt O77680)
# procedure-summary: Affinity on dopamine D1 receptor, competition with [3H] SCH23390
Just the number in nM, nothing appended.

For orientation, consider the following solved cases.
[[record]]
compound = "COc1ccc2c(c1)CCN1Cc3c(cc(OC)c(OC)c3OC)CC21 (racemic) [DC037007]"
system = "dopamine D1 receptor (Macaca mulatta (Rhesus macaque), UniProt O77680)"
property_measured = "IC50"
number = 2030

[[record]]
compound = "COc1cc2c(cc1O)[C@@H]1Cc3c(OC)ccc(OC)c3CN1CC2 [DC037030]"
system = "dopamine D1 receptor (Macaca mulatta (Rhesus macaque), UniProt O77680)"
property_measured = "IC50"
number = 7.22


Shift focus to the following entry.
### Prompt Name the reported IC50 value associated with the compound COc1ccc(OC)c2c1C[C@H]1c3cc4c(cc3CCN1C2)CCO4 [DC037034]
### Response 484

====

# system: dopamine D1 receptor (Macaca mulatta (Rhesus macaque))
# procedure-summary: Affinity on dopamine D1 receptor, competition with [3H] SCH23390
# Assay type: binding
# Set-up: concentration or dose not given beside the values
# Protocol: (1). Determination of the Affinity of Hexahydrodibenzo[a,g]Quinolizine Compound of General Formula I and Derivatives Thereof on Dopamine D1, Dopamine D2, 5-HT1A, and 5-HT2A Receptor. 1) The Experimental Method Different concentrations (10^−5 M-10^−11 M) of the compound of the invention and corresponding isotope receptor ligand as well as receptor protein were loaded into the reaction tube and incubated in 30° C. water bath for 60 minutes. The reaction was terminated in a refrigerator. […]
Items are presented alongside their recorded D1 receptor inhibition ratio (%).
Just the number in %, nothing appended.

For orientation, consider the following solved cases.
[[record]]
query_smiles = "COc1cc2c(c(OC)c1)CN1CCc3cc(OC)c(O)cc3[C@@H]1C2"
unit_name = "%"
number = 99.99

[[record]]
query_smiles = "COc1cc2c(cc1OC)[C@@H]1Cc3cc(C)cc(C)c3CN1CC2"
unit_name = "%"
number = 94.5


### Prompt Name the reported D1 receptor inhibition ratio (%) value associated with the molecule `COc1cc2c(c(OC)c1)CN1CCc3cc(OC)c(OC)cc3[C@@H]1C2`
### Response 97.88

====

# system: D2 dopamine receptor (Rattus norvegicus (Rat))
# Sequence (P61169 whole entry): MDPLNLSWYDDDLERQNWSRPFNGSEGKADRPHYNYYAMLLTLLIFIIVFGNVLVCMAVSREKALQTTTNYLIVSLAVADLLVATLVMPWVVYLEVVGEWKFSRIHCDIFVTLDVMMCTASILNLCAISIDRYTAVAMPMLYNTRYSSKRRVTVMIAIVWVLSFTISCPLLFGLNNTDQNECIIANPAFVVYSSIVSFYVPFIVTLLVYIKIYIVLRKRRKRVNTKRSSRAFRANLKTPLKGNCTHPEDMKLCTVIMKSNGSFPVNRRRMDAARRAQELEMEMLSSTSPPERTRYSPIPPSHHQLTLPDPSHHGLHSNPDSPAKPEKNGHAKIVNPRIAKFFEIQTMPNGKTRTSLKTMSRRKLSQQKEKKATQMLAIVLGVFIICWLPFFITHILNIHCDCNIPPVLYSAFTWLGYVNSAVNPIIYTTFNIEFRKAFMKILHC
# procedure-summary: Affinity on dopamine D2 receptor, competition with [3H] Spiperone
# Type: binding
# Set-up: concentration or dose not given beside the values
Classify as follows. Reported D2 receptor inhibition ratio (%) greater than or equal to 80%: t. Reported D2 receptor inhibition ratio (%) below: f.

### Prompt Is reported D2 receptor inhibition ratio (%) greater than or equal to 80% here: `COc1cc2c(cc1OC)[C@@H]1Cc3cc(C)cc(C)c3CN1CC2`
### Response t

====

# system: D2 dopamine receptor (Rattus norvegicus (Rat))
# procedure-summary: Affinity on dopamine D2 receptor, competition with [3H] Spiperone
# Format: binding
# Parameters: concentration or dose not given beside the values
property-measured: D2 receptor inhibition ratio (%)
Just the number in %, nothing appended.

For orientation, consider the following solved cases.
[[record]]
compound = "COc1ccc2c(c1)CCN1Cc3cc(OC)c(OC)cc3CC21 (racemic)"
system = "D2 dopamine receptor (Rattus norvegicus (Rat))"
number = 0.35

[[record]]
compound = "COc1cc2c(c(OC)c1)CN1CCc3cc(OC)c(OC)cc3[C@@H]1C2"
system = "D2 dopamine receptor (Rattus norvegicus (Rat))"
number = 39.50

[[record]]
compound = "COc1cc2c(c(OC)c1)CN1CCc3cc4c(cc3[C@@H]1C2)OCO4"
system = "D2 dopamine receptor (Rattus norvegicus (Rat))"
number = 1.02


### Prompt Name the reported D2 receptor inhibition ratio (%) value associated with the compound `COc1cc2c(c(OC)c1)CN1CCc3cc(OC)c(O)cc3[C@@H]1C2`
### Response 76.21

### Prompt Name the reported D2 receptor inhibition ratio (%) value associated with the compound `COc1c(O)ccc2c1CN1CCc3cc4c(cc3[C@@H]1C2)OCC4`
### Response 73.07

====

# system: D2 dopamine receptor (Rattus norvegicus (Rat))
# procedure-summary: Affinity on dopamine D2 receptor, competition with [3H] Spiperone
# Format: binding
# Set-up: concentration or dose not given beside the values
property-measured: D2 receptor inhibition ratio (%)
Just the number in %, nothing appended.

For orientation, consider the following solved cases.
[[record]]
compound = "COc1cc2c(cc1OC)C1Cc3cc4c(cc3CN1CC2)OCO4 (racemic) [DC037014]"
number = 25.8

[[record]]
compound = "COc1cc2c(cc1OC)C1Cc3cc(C)cc(C)c3CN1CC2 (racemic) [DC037018]"
number = 77.4

[[record]]
compound = "COc1ccc2c(c1)CCN1Cc3c(cc(OC)c(OC)c3OC)CC21 (racemic) [DC037007]"
number = 49.05


### Prompt Form: Entry = COc1ccc(OC)c2c1C[C@H]1c3cc(O)c(O)cc3CCN1C2 [DC037035] | System = D2 dopamine receptor (Rattus norvegicus (Rat)) | D2 receptor inhibition ratio (%) = ____
### Response 84.30

The values you see were collected from patent US9359372B2.
